system: OVCAR-5 ovarian; assay: NCI-60 one-dose screen, 48 h; settings: 10 µM unless noted
The panel holds about 83,000 compounds, 20% with a hit somewhere; the sample as a whole holds those more often. Calls of active or inactive are those of the source. How the source made its calls: active means growth percent below 10; inactive means the rest.
Entry note: the call must match one of t for active, f for inactive

Would you please look over these solved cases?
COMPOUND	QUALITATIVE_LABEL
Cc1[nH]c(/C=C2\C(=O)Nc3ccc(F)cc32)c(C)c1C(=O)NC[C@H](O)CN1CCOCC1	f
CCc1nc2cc(/C=C/C(=O)NO)ccc2c(=O)n1CCc1ccc(OC)cc1	f
Cn1ccnc1C(=O)/C=C/c1ccc(CC(=O)Nc2ccc(Br)cc2)cc1	f
C[C@@H](Nc1cc(F)cc(F)c1)c1cc(C(=O)N(C)C)cc2c(=O)cc(N3CCOCC3)oc12	f
C[C@]12O[C@H](C[C@]1(O)CO)n1c3ccccc3c3c4c(c5c6ccccc6n2c5c31)CNC4=O	t
Cc1cc(Nc2nc(N[C@@H](C)c3ncc(F)cn3)ncc2Cl)n[nH]1	f
O=C1CC(c2ccc(Cl)cc2)c2ncn(-c3cccc(Cl)c3)c2N1 (centres undefined)	f
C=CC(=O)Nc1cccc(Oc2nc(Nc3ccc(N4CCN(C)CC4)cc3)nc3ccsc23)c1	t

Request: Which result was noted for this compound in the test: O=C(Nc1cccc([N+](=O)[O-])c1)c1ccc(Cl)c(Cl)c1
Response: f

These entries and their values trace back to PubChem BioAssay (NCI).
